Recorded measurements of pKd, one per entry
Biological target: T1, human PCSK9 (PCSK9 antigen, SEQ ID NO. 53) (human, UniProt A8T644 31-152; Q8NBP7 153-692, Biotin-labelled on amines in the MSD-SET and sorting experiments; positions not given.)
T1 construct: Biotin-labelled in MSD-SET; also called PCSK9-WT; PCSK9 protein
Assay: MSD-SET, Fab with biotin-PCSK9 in solution, IgG on plate, pH 7.4
Formally, pKd is defined as -log10 of the concentration c, with c in mol/L.

Here are 2 binders together with their reported answers.
| binder | pKd |
| --- | --- |
| ADI-10088 Fab (Fab, V domains shown) VH: QLQLQESGPGLVKPSETLSLTCTVSGGSIGSSSYYWAWIRQPPGKGLEWIGSINYRGSTYYNPSLKSRVTISVDTSKNQFSLKLSSVTAADTAVYYCARENSGVVPAAGPNWFDPWGQGTLVTVSS VL: EIVLTQSPATLSLSPGERATLSCRASQSVSSYLAWYQQKPGQAPRLLIYDASNRATGIPARFSGSGSGTDFTLTISSLEPEDFAVYYCQQRRNWFTFGGGTKVEIKR | 11.00 |
| ADI-10089 Fab (Fab, V domains shown) VH: QLQLQESGPGLVKPSETLSLTCTVSGGSIGSSSYYWTWIRQPPGKGLEWIGSINYRGSTYYNPSLKSRVTISVDTSKNQFSLKLSSVTAADTAVYYCARENSGVVPAAGPNWFDPWGQGTLVTVSS VL: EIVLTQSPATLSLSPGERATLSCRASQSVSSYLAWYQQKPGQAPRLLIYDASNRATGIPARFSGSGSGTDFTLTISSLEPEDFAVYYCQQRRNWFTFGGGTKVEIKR | 10.96 |

Proceeding to the next binder to report its pKd.
// query What does the record list as pKd for ADI-09112 Fab (Fab, V domains shown) VH: QLQLQESGPGLVKPSETLSLTCTVSGGSISSSSYYWGWIRQPPGKGLEWIGSIYYSGSTYYNPFLKSRVTISVDTSKNQFSLKLSSVTAADTAVYYCARENSGVVPAAGPNWFGPWGQGTLVTVSS VL: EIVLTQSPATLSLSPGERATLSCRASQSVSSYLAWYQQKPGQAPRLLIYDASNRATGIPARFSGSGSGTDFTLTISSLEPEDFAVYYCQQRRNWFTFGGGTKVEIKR ?
// result 9.66
